Item-by-item account of inhibition at 1 µM
biological target: motilin receptors located on the colon of mature rabbits (Oryctolagus cuniculus); construct: The colon from mature New Zealand rabbits was removed, dissected free from the mucosa and serosa layers, and diced into small pieces; from tissue; host or cells: colon smooth muscle of mature New Zealand rabbits, crude membrane homogenate; test: competition with radiolabeled (125I) porcine motilin for the motilin receptors of rabbit colon; assay type: binding; details: @ 1.0 μM
Sequence (G1T803 1-400): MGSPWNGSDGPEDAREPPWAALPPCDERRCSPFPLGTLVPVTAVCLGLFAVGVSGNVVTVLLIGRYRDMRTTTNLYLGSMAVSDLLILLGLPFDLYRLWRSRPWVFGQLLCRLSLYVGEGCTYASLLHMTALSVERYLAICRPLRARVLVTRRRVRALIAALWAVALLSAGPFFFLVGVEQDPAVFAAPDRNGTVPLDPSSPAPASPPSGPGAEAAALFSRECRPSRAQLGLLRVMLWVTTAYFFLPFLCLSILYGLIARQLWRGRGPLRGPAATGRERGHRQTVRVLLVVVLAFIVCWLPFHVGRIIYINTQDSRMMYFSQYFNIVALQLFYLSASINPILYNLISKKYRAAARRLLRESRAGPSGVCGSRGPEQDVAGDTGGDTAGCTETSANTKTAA
Report the figure in % without appending any unit label.

Example results:
Request: Return value of inhibition at 1 µM for input O=C(NC1CCCCC1)N(CC1=CC(Cc2ccccc2)(NC(=O)C(Cl)(Cl)Cl)CC1)c1cccc(OCCN2CCOCC2)c1 (stereo not drawn) [Compound 119] , no commentary.
Response: 56

Request: Return value of inhibition at 1 µM for input O=C(c1cccc(F)c1)N(CC1=CC(Cc2ccccc2)(NC(=O)C(Cl)(Cl)Cl)CC1)c1cc(OCCN2CCOCC2)ccc1Cl (stereo not drawn) [Compound 113] , no commentary.
Response: 59

--- query ---
Request: Return value of inhibition at 1 µM for input O=C(c1ccc2c(c1)OCO2)N(CC1=CC(Cc2ccccc2)(NC(=O)C(Cl)(Cl)Cl)CC1)c1cccc(OCCN2CCOCC2)c1 (stereo not drawn) [Compound 122] , no commentary.
Response: 77
